system: N140; assay: qHTS profiling for inhibitors of Plasmodium falciparum proliferation (AID 504749); also: nearly all actives have a fitted effect of over 60% in size; details: P. falciparum in erythrocytes, SYBR Green DNA, 72 h; series mostly up to 12.8 µM
Inconclusive results are not listed. Activity calls are given as the source filed them. Calls follow the shape of the dose curve; as a rule, active = well fitted inhibition curve with a large enough effect; inconclusive = small, poorly fitted or top-dose-only effect; inactive = flat fitted curve, though single readings scatter.
Labels: t for active, f for inactive

Compound	Assay Target	Label
C[C@H](NCCc1ccc(O)cc1)[C@@H](O)c1ccc(O)cc1	N140	f
CN1CCCC[C@@H]1CCN1c2ccccc2Sc2ccc(S(C)=O)cc21 (some centres undefined)	N140	f
CC(C)N1CCN(c2ccc(OC[C@@H]3CO[C@@](Cn4cncn4)(c4ccc(Cl)cc4Cl)O3)cc2)CC1	N140	f
CC(=O)N(CC(O)CN(C(C)=O)c1c(I)c(C(=O)NC[C@@H](O)CO)c(I)c(C(=O)NC[C@@H](O)CO)c1I)c1c(I)c(C(=O)NC[C@@H](O)CO)c(I)c(C(=O)NC[C@@H](O)CO)c1I	N140	f
CN[C@@H](CC(C)C)C(=O)N[C@@H]1C(=O)N[C@H](CC(N)=O)C(=O)N[C@@H]2C(=O)N[C@H]3C(=O)N[C@H](C(=O)N[C@H](C(=O)O)c4cc(O)cc(O)c4-c4cc3ccc4O)[C@H](O)c3ccc(c(Cl)c3)Oc3cc2cc(c3O[C@H]2O[C@@H](CO)[C@@H](O)[C@@H](O)[C@@H]2O[C@@H]2C[C@](C)(N)[C@H](O)[C@H](C)O2)Oc2ccc(cc2Cl)[C@@H]1O	N140	f
CC1(C)Oc2ccc(C#N)cc2[C@H](N2CCCC2=O)[C@H]1O	N140	f
O=C(c1ccccc1)c1ccc2n1CC[C@H]2C(=O)O	N140	f
COCCc1ccc(OC[C@H](O)CNC(C)C)cc1	N140	f
CC1(C)O[C@@H]2C[C@H]3[C@H]4C[C@H](F)C5=CC(=O)C=C[C@@]5(C)[C@@H]4[C@H](O)C[C@]3(C)[C@]2(C(=O)CO)O1	N140	f
CN(N=O)C(=O)N[C@H]1[C@@H](O)[C@H](O)[C@H](CO)O[C@@H]1O	N140	f
CO[C@]1(NC(=O)CSCC#N)C(=O)N2C(C(=O)O)=C(CSc3nnnn3C)CS[C@H]21	N140	f
NS(=O)(=O)c1cc([C@@]2(O)NC(=O)c3ccccc32)ccc1Cl	N140	f
CC[C@@]12CCCN3CCc4c(n(c5ccccc45)C(=O)C1)[C@H]32	N140	f
CCN(CC)CCC[C@H](C)Nc1ccnc2cc(Cl)ccc12	N140	t
CC(=O)OCC1=C(C(=O)O)N2C(=O)[C@@H](NC(=O)CSc3ccncc3)[C@@H]2SC1	N140	f
O=c1[nH]c(=O)n([C@@H]2C[C@H](O)[C@H](CO)O2)cc1I	N140	f
C[n+]1ccccc1/C=N\O	N140	f
NC(=O)c1cc[n+](CC2=C(C(=O)O)N3C(=O)[C@@H](NC(=O)[C@H](c4ccccc4)S(=O)(=O)[O-])[C@@H]3SC2)cc1	N140	t
CC(C)(O/N=C(\C(=O)N[C@@H]1C(=O)N2C(C(=O)[O-])=C(C[n+]3ccccc3)CS[C@@H]12)c1csc(N)n1)C(=O)O	N140	f
CC(=O)O[C@@H](C)C[N+](C)(C)C	N140	f
COc1ccc(C[C@@H]2c3cc(OC)c(OC)cc3CC[N@+]2(C)CCC(=O)OCCCCCOC(=O)CC[N@@+]2(C)CCc3cc(OC)c(OC)cc3[C@H]2Cc2ccc(OC)c(OC)c2)cc1OC	N140	f
COc1ccccc1OC[C@H](O)COC(N)=O	N140	f
C/C=C\C(=O)N(CC)c1ccccc1C	N140	f
CCN(CC)CCC[C@H](C)Nc1c2ccc(Cl)cc2nc2ccc(OC)cc12	N140	t
C[N+](C)(C)CC(O)CC(=O)O (centres undefined)	N140	f
CO/N=C(\C(=O)N[C@@H]1C(=O)N2C(C(=O)O)=C(COC(C)=O)CS[C@@H]12)c1csc(N)n1	N140	f
CC[C@]1(C)CC(=O)NC1=O	N140	f
CCN[C@@H]1C[C@H](C)S(=O)(=O)c2sc(S(N)(=O)=O)cc21	N140	f
C[C@@H](CCc1ccccc1)NC[C@H](O)c1ccc(O)c(C(N)=O)c1	N140	f
C[N+]1(C)CCC[C@@H](OC(=O)C(O)(c2ccccc2)c2ccccc2)C1	N140	f
CO/N=C(/C(=O)NC1C(=O)N2C(C(=O)O)=C(CSc3nc(=O)c(O)nn3C)CSC12)c1csc(N)n1 (centres undefined)	N140	f
CCn1cc(C(=O)O)c(=O)c2cc(F)c(N3CCN[C@@H](C)C3)c(F)c21	N140	f
CN(C)[C@@H]1C(=O)C(C(N)=O)=C(O)[C@]2(O)C(=O)C3=C(O)c4c(O)ccc(Cl)c4[C@H](O)[C@H]3C[C@@H]12	N140	f
CC[C@H](NC(C)C)[C@H](O)c1ccc(O)c(O)c1	N140	f
